- Assay System: OsWRKY34 (Oryza sativa, UniProt Q0JBA9 1-250)
- Sequence (Q0JBA9 entry or part of it): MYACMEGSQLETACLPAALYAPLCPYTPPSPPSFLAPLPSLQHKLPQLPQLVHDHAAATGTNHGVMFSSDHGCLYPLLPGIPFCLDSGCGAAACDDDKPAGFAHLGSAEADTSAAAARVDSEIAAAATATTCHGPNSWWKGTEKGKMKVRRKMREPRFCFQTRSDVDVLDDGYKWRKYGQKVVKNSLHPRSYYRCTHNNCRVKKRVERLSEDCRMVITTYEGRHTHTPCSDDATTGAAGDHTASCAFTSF
- Method Description: protein-binding microarray (RPBM); PBS, 2% BSA, 51.3 ng/ul salmon testes DNA, 50 uM zinc acetate, 200 nM TF, 25 C, 1 h; high values mean tight binding
- Condition Summary: protein: recombinant; tags: N-terminal polyhistidine and DsRed monomer fusion (pET32a); label: CyDye5-dUTP incorporated in the synthesized complementary strand; 3' TTTTT single-stranded linker to array surface; dsDNA, one strand shown
The full ranking holds about 68,000 sequences; the median of “fluorescence intensity (a.u.)” is about 9,100, and the highest 2% start at about 16,000. For the sample, the highest values were picked, then their nearest neighbours and some sequences at random.
Consider the following sequences; for each one, report its binding signal.

Worked examples, 5 sequences total:
1) CGATCCGCTTGCAGGCGGCGGCGGCGGGAGGGTGGTGGGGCGGAGTCACCTAGTGCAG ... 18000 fluorescence intensity (a.u.)
2) GGGGCGGAGATCTGGGAGGAGGAGGAGGAGGTGGTGGTGGCGGAGTCACCTAGTGCAG ... 14500 fluorescence intensity (a.u.)
3) TTGGGGTTGGACCGGTTTTCATCTGTTCTTGTCCTGAGAGCGGAGTCACCTAGTGCAG ... 10800 fluorescence intensity (a.u.)
4) TTCACAGTGTAGTTGTTTTATTTAGCCAGTATTTTTTTTTCGGAGTCACCTAGTGCAG ... 8820 fluorescence intensity (a.u.)
5) CCGAGCACCCACCCGCCGCCGCCGCCGTCGCCGATTCATGCGGAGTCACCTAGTGCAG ... 9080 fluorescence intensity (a.u.)

Your task in this section: give binding signal for each listed record.
1. TACTGGGGAATCGGTGGTGGTGGCGGCGGCGGTGGCGGCGCGGAGTCACCTAGTGCAG
2. CTCATCCGAGTGGGTGGGCGGGGAGAGATCTAGGGCTTGCCGGAGTCACCTAGTGCAG

Solution:
["9690 fluorescence intensity (a.u.)", "11700 fluorescence intensity (a.u.)"]

Your task in this section: give binding signal for each listed record.
1. TGTGGCGGGGAGGGAGGGAGGGAGAAGGGGCGGCGTGTTGCGGAGTCACCTAGTGCAG
2. CCCGCGGCGGCGGGGTGGAGGCGACGGCGGTGGTGGTGGGCGGAGTCACCTAGTGCAG

Solution:
1. 16600 fluorescence intensity (a.u.)
2. 8590 fluorescence intensity (a.u.)

====

- Assay System: OsWRKY34 (Oryza sativa, UniProt Q0JBA9 1-250)
- Method Description: protein-binding microarray (RPBM); PBS, 2% BSA, 51.3 ng/ul salmon testes DNA, 50 uM zinc acetate, 200 nM TF, 25 C, 1 h; high values mean tight binding
- Condition Summary: protein: recombinant; tags: N-terminal polyhistidine and DsRed monomer fusion (pET32a); label: CyDye5-dUTP incorporated in the synthesized complementary strand; 3' TTTTT single-stranded linker to array surface; dsDNA, one strand shown
In all, about 68,000 sequences were measured (“fluorescence intensity (a.u.)”: median about 9,100, highest 2% from about 16,000 on). For the sample, the highest values were picked, then their nearest neighbours and some sequences at random.
Consider the following sequences; for each one, report its binding signal.

Worked examples, 3 sequences total:
1) GCGCGCGCCGGCCTCCGTCTTCCTCCGCGGGTGCGCCACCCGGAGTCACCTAGTGCAG ... 10400 fluorescence intensity (a.u.)
2) CTCTCCTCTCCTCGCTTCTTCGTCTCGCTTGCTCGCTCGCCGGAGTCACCTAGTGCAG ... 8550 fluorescence intensity (a.u.)
3) TTCCTCCGTCTGCGTGCCGGCTTCTGTCTTCCTCCGCGCGCGGAGTCACCTAGTGCAG ... 17300 fluorescence intensity (a.u.)

Your task in this section: give binding signal for each listed record.
1. GGCAACCACCTCAATTATTATTCCATTCCCTACCACCACTCGGAGTCACCTAGTGCAG
2. ATTTGTCATTTTTTCTATGTGTATATGTTGTATTTTGAGCCGGAGTCACCTAGTGCAG

Solution:
1: 9980 fluorescence intensity (a.u.); 2: 8430 fluorescence intensity (a.u.)
